Give measured inhibition for each item. Keep answers brief.
# Tested on: Proto-oncogene tyrosine-protein kinase receptor Ret (Homo sapiens), P07949 [Y791F]
# Sequence (P07949 whole entry Y791F): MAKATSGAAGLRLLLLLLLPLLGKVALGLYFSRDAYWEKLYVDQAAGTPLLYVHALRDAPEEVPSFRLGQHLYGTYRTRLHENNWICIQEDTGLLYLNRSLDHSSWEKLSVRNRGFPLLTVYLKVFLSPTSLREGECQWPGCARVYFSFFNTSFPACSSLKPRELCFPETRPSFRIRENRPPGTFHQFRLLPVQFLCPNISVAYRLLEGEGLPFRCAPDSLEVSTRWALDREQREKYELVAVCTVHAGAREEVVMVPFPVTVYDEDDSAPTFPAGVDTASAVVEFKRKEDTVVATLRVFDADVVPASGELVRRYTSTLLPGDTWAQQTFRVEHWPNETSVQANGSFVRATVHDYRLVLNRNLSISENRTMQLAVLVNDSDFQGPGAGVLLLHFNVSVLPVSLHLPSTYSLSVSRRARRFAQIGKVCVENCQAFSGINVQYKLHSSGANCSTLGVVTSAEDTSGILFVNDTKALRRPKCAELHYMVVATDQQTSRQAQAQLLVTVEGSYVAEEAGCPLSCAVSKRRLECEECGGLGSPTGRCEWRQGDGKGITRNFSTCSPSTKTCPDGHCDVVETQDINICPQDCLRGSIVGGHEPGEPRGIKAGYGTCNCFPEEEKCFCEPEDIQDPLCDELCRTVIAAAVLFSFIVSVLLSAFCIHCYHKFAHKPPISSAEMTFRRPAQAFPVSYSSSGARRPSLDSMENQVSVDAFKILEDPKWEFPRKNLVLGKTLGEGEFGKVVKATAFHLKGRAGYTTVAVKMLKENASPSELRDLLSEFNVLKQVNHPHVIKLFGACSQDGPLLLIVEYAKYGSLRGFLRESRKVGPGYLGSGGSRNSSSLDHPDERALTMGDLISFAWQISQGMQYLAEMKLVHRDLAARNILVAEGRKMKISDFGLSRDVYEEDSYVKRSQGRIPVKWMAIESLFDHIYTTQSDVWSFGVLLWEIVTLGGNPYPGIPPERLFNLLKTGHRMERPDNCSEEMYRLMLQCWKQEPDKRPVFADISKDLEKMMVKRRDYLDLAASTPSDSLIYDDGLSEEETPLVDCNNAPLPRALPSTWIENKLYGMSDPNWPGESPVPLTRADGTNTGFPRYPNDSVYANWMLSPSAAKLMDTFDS
# MEASUREMENT CONTEXT: at 1 µM
Unit % implied. Number only.

GET /values?readout=inhibition&item= `O=C(Nc1n[nH]c2nc(-c3ccc(O)cc3)c(Br)cc12)C1CC1`
36.3

GET /values?readout=inhibition&item= `O=C(Nc1n[nH]c2nc(-c3ccco3)ccc12)C1CC1`
8.66

GET /values?readout=inhibition&item= `COc1cc2ncn(-c3cc(OCc4ccccc4C(F)(F)F)c(C(C)=O)s3)c2cc1OC`
12.8

GET /values?readout=inhibition&item= `O=C(Nc1ccc(Oc2ccc3[nH]c(NC(=O)c4ccccc4)nc3c2)cc1)Nc1cc(C(F)(F)F)ccc1F`
87

GET /values?readout=inhibition&item= `COc1ccc2cc(-c3c(-c4ccncc4)nc(-c4ccc(S(C)(=O)=O)cc4C)n3C)ccc2c1`
26.6

GET /values?readout=inhibition&item= `Fc1ccc(-c2nc3n(c2-c2ccncc2)CCS3)cc1`
9.79

GET /values?readout=inhibition&item= `COC(=O)Nc1nc2ccc(Sc3ccc(NC(=O)Nc4cc(C(F)(F)F)ccc4F)cc3)cc2[nH]1`
73.9

GET /values?readout=inhibition&item= `NC(=O)Cc1ccccc1Oc1nccc(-c2c(-c3ccc(F)cc3)ncn2C2CCNCC2)n1`
4.66

GET /values?readout=inhibition&item= `O=C(Nc1n[nH]c2cc(-c3cc(F)ccc3F)ccc12)C1CC1`
11.5

GET /values?readout=inhibition&item= `CCS(=O)(=O)c1ccc(OC)c(Nc2ncc(-c3cccc(-c4ccccc4F)c3)o2)c1`
51.1

###

# TEST SYSTEM: Sphingosine kinase 2 (Homo sapiens);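 also: values reported as mean percent inhibition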
# Sequence (whole entry): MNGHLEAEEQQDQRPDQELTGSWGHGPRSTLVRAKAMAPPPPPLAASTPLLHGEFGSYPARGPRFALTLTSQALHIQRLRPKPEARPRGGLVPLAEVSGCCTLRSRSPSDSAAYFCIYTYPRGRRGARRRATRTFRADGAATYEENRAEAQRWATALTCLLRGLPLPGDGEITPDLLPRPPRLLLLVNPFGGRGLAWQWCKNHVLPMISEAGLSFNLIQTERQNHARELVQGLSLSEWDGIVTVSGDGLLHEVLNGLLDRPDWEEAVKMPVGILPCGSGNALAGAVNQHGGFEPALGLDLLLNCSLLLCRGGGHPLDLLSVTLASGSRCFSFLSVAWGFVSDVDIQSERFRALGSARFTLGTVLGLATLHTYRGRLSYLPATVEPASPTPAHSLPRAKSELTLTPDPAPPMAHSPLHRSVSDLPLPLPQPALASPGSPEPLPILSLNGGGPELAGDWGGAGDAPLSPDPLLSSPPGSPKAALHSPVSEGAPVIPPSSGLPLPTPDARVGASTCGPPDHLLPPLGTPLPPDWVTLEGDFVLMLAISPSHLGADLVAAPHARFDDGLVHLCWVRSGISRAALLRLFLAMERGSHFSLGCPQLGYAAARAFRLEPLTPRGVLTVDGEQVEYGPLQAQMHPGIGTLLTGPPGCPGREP
# MEASUREMENT CONTEXT: at 0.1 µM
PROPERTY: inhibition (%)
Unit % implied. Number only.

GET /values?readout=inhibition&item= `O=C(Nc1n[nH]c2nc(-c3ccco3)ccc12)C1CC1`
0.87

GET /values?readout=inhibition&item= `COc1cc(N2CCN(C(C)C)CC2)ccc1Nc1nc(Nc2ccc(F)cc2C(=O)NC[C@@H](O)CO)c2cc[nH]c2n1`
0.95

GET /values?readout=inhibition&item= `COc1cc2ncn(-c3cc(OCc4ccccc4C(F)(F)F)c(C(C)=O)s3)c2cc1OC`
-0.29

GET /values?readout=inhibition&item= `Fc1ccc(-c2c(-c3ccncc3)nc3n2CCS3)cc1`
0.08

GET /values?readout=inhibition&item= `COc1ccc(-c2ccc3c(NC(=O)C4CC4)n[nH]c3n2)cc1`
-0.3

GET /values?readout=inhibition&item= `O=C(Nc1n[nH]c2cc(-c3cc(F)ccc3F)ccc12)C1CC1`
2.23

GET /values?readout=inhibition&item= `Cc1nnc(-c2ccc(C)c(-c3ccc(C(=O)NCc4ccc(Cl)cc4)cc3)c2)o1`
0.02

GET /values?readout=inhibition&item= `C/C(Nc1ccc(S(N)(=O)=O)cc1)=C1/C(=O)Nc2ccccc21`
0.02

GET /values?readout=inhibition&item= `O=C1NC(=O)C(c2cccc(Cl)c2)=C1Nc1ccc(Cl)c(C(=O)O)c1`
-0.06

GET /values?readout=inhibition&item= Nc1nccc(-c2c(-c3ccc(F)cc3)ncn2C2CCC(O)CC2)n1 (stereo unspecified)
2.29

GET /values?readout=inhibition&item= `CCc1cccc(CC)c1/C=C/c1cncc(C(=O)NC)c1`
0.98

GET /values?readout=inhibition&item= `CCc1ccc(Oc2nccc(-c3c(-c4ccc(F)cc4)ncn3C3CCNCC3)n2)cc1`
1.25

GET /values?readout=inhibition&item= `COc1cccc(-n2cnc3c(N/N=C/c4ccncc4)ncnc32)c1`
0.58

GET /values?readout=inhibition&item= `COC(=O)Nc1nc2ccc(Sc3ccc(NC(=O)Nc4cc(C(F)(F)F)ccc4F)cc3)cc2[nH]1`
-0.54

GET /values?readout=inhibition&item= `CS(=O)(=O)CCNCc1ccc(-c2ccc3ncnc(Nc4ccc(OCc5ccccc5)c(Br)c4)c3c2)o1`
-0.25

GET /values?readout=inhibition&item= `CCS(=O)(=O)c1ccc(OC)c(Nc2ncc(-c3ccccc3Cl)o2)c1`
0

GET /values?readout=inhibition&item= `CN(C)CCOc1ccc(-c2cc(-c3ccc4c(c3)CCC4=NO)c(-c3ccncc3)o2)cc1`
-0.68

GET /values?readout=inhibition&item= `Cc1ccc(C(=O)NC2CCC2)cc1-c1ccc(C(=O)NCC2CC2)cc1`
0.15

GET /values?readout=inhibition&item= `CCS(=O)(=O)c1ccc(OC)c(Nc2ncc(-c3cccc(-c4ccccc4F)c3)o2)c1`
0.06

GET /values?readout=inhibition&item= `COc1ccc(C2=C(N3CCc4ccccc43)C(=O)NC2=O)cc1`
0.83

GET /values?readout=inhibition&item= `Cc1ccc(C(=O)NC(C)C)cc1-c1ccc(C(=O)NCC2CC2)cc1`
-1.05

###

# TEST SYSTEM: Non-receptor tyrosine-protein kinase TYK2 (Homo sapiens) (UniProt P29597);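 also: each value is a mean of the inhibition readings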
# Sequence (P29597 whole entry): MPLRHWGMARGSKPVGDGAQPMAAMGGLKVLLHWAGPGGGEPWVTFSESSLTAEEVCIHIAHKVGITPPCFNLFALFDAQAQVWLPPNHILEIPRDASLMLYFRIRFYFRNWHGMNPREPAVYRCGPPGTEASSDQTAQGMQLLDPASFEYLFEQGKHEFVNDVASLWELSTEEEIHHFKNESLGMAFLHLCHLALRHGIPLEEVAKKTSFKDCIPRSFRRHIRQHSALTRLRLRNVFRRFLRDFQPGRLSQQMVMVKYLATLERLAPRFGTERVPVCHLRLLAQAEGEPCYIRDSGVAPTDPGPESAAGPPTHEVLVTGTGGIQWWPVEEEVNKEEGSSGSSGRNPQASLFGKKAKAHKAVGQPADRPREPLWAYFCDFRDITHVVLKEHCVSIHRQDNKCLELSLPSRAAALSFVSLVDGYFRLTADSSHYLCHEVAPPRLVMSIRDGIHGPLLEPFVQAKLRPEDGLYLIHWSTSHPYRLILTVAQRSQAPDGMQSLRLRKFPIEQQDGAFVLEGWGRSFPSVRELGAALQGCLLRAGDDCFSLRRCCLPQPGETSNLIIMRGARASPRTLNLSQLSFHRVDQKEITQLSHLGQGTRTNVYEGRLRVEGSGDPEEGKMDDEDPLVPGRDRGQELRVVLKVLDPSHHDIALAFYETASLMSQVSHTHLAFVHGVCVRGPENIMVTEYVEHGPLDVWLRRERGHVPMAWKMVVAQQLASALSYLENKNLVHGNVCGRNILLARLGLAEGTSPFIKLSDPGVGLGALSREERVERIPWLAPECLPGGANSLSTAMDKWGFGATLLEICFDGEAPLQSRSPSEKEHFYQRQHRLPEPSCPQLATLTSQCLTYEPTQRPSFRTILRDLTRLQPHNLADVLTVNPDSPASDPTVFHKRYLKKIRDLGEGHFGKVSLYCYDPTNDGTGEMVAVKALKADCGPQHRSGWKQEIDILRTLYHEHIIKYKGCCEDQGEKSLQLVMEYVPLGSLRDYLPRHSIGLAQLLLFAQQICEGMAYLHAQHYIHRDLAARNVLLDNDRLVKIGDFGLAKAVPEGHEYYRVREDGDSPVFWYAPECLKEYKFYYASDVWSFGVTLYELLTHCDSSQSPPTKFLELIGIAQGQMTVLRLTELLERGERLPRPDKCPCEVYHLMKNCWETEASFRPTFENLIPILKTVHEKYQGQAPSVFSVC
# MEASUREMENT CONTEXT: at 0.1 µM
PROPERTY: inhibition (%)
Unit % implied. Number only.

GET /values?readout=inhibition&item= `COC(=O)Nc1nc2ccc(Sc3ccc(NC(=O)Nc4cc(C(F)(F)F)ccc4F)cc3)cc2[nH]1`
-0.72

GET /values?readout=inhibition&item= `Fc1ccc(-c2ncn(C3CCNCC3)c2-c2ccnc(Oc3ccc(Oc4ccccc4)cc3)n2)cc1`
-1.07

GET /values?readout=inhibition&item= `CN(C)c1ccc2c(c1)/C(=C/Nc1ccc(S(N)(=O)=O)cc1)C(=O)N2`
1.02

GET /values?readout=inhibition&item= `COc1cc2ncn(-c3cc(OCCc4ccccc4)c(C(N)=O)s3)c2cc1OC`
-3.55

GET /values?readout=inhibition&item= `COc1ccc(C2=C(N3CCc4ccccc43)C(=O)NC2=O)cc1`
-3.26

###

Give measured inhibition for each item. Keep answers brief.
# TEST SYSTEM: Serine/threonine-protein kinase pim-1 (Homo sapiens) (UniProt P11309);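 also: reported value is the mean inhibition of PIM1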
# Sequence (P11309 whole entry, looked up): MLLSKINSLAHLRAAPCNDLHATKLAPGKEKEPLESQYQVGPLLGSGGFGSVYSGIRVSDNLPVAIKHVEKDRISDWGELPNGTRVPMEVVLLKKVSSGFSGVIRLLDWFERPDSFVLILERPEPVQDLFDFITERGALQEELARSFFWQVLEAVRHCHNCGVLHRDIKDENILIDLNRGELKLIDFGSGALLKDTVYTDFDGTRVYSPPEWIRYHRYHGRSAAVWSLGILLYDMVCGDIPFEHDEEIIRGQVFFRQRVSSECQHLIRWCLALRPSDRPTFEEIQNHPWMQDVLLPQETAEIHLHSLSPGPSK
# MEASUREMENT CONTEXT: at 0.1 µM
Unit % implied. Number only.

GET /values?readout=inhibition&item= `CCc1cccc(CC)c1/C=C/c1cncc(C(=O)NC)c1`
1.04

GET /values?readout=inhibition&item= `C#Cc1cccc(Nc2ncnc3ccc(OCCCCNCCS(C)(=O)=O)cc23)c1`
6.27

GET /values?readout=inhibition&item= `COc1cccc(-n2cnc3c(N/N=C/c4ccncc4)ncnc32)c1`
-0.24

GET /values?readout=inhibition&item= `CCS(=O)(=O)c1ccc(OC)c(Nc2ncc(-c3cccc(-c4ccccc4F)c3)o2)c1`
-0.29

GET /values?readout=inhibition&item= `COc1ccc(-c2ccc3c(NC(=O)C4CC4)n[nH]c3n2)cc1`
-0.29

GET /values?readout=inhibition&item= `O=C(Nc1n[nH]c2nc(-c3ccc(O)cc3)c(Br)cc12)C1CC1`
19.7

###

# TEST SYSTEM: Serine/threonine-protein kinase Nek2 (Homo sapiens);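 also: reported values are mean percent inhibition of NEK2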
# MEASUREMENT CONTEXT: at 1 µM
PROPERTY: inhibition (%)
Unit % implied. Number only.

GET /values?readout=inhibition&item= `C#Cc1cccc(Nc2ncnc3ccc(OCCCCNCCS(C)(=O)=O)cc23)c1`
6.09

GET /values?readout=inhibition&item= `NC(=O)Cc1ccccc1Oc1nccc(-c2c(-c3ccc(F)cc3)ncn2C2CCNCC2)n1`
4.35

GET /values?readout=inhibition&item= `COc1ccc2cc(-c3c(-c4ccncc4)nc(-c4ccc(S(C)(=O)=O)cc4C)n3C)ccc2c1`
4.5

GET /values?readout=inhibition&item= `Fc1ccc(-c2ncn(C3CCNCC3)c2-c2ccnc(Oc3ccc4c(c3)OCO4)n2)cc1`
6.41

GET /values?readout=inhibition&item= `O=C(Nc1n[nH]c2nc(-c3ccc(O)cc3)c(Br)cc12)C1CC1`
9

# credit: ChEMBL document CHEMBL1961873
